- measurement.target: UniProt P08482
- assay.method.text: rat M1 muscarinic receptor antagonist potency, dose response, cell-based, calcium fluorescence (AID 859)
- test.settings: M1-expressing cells, antagonist mode vs EC80
assay.endpoint: IC50

// IC50 lookup, key: CN1CCN(CCC(C#N)(c2ccccc2)c2ccccc2)CC1
395 nM

// IC50 lookup, key: Cc1cccc(Cn2c(Sc3nc(C)cs3)nc3c2c(=O)[nH]c(=O)n3C)c1
20.2 nM

// IC50 lookup, key: CC1CCN(Cc2ccc(NC(=O)CC3Oc4ccccc4NC3=O)cc2)CC1 (centres undefined)
234 nM

// IC50 lookup, key: CCN(CC)CCOC(=O)C(c1ccccc1)c1ccccc1
327 nM

// IC50 lookup, key: OC(CCN1CCCCC1)(c1ccccc1)c1ccccc1
58 nM

// IC50 lookup, key: O=C(CN1CCN(CCOCCO)CC1)N1c2ccccc2Sc2ccc(Cl)cc21
1030 nM

// IC50 lookup, key: O=C1CC(N2CCN(C/C=C/c3ccccc3)CC2)C(=O)N1Cc1cccs1 (centres undefined)
846 nM

// IC50 lookup, key: CN(C)CCC=C1c2ccccc2CCc2ccccc21
637 nM

// IC50 lookup, key: CN(C)CCOC(=O)C(c1ccccc1)C1(O)CCCC1 (centres undefined)
25.7 nM

// IC50 lookup, key: CN(C)CCCOC(=O)C1c2ccccc2Oc2ccccc21
63.7 nM

// IC50 lookup, key: CCCC(CCC)C(=O)OC1C[C@H]2CC[C@@H](C1)[N+]2(C)C (some centres undefined)
302 nM

// IC50 lookup, key: CN1CCCN=C1COC(=O)C(O)(c1ccccc1)C1CCCCC1 (centres undefined)
12.6 nM

// IC50 lookup, key: Cn1cc(CN2CCN(c3ccccc3)CC2)c2ccccc21
226 nM

// IC50 lookup, key: COC(=O)Nc1ccc2c(c1)N(C(=O)CCN1CCOCC1)c1ccccc1S2
1060 nM

---

Give pIC50 for every item shown.
- measurement.target: Muscarinic acetylcholine receptor M1 (Rattus norvegicus) (UniProt P08482)
- Sequence (P08482 whole entry, looked up): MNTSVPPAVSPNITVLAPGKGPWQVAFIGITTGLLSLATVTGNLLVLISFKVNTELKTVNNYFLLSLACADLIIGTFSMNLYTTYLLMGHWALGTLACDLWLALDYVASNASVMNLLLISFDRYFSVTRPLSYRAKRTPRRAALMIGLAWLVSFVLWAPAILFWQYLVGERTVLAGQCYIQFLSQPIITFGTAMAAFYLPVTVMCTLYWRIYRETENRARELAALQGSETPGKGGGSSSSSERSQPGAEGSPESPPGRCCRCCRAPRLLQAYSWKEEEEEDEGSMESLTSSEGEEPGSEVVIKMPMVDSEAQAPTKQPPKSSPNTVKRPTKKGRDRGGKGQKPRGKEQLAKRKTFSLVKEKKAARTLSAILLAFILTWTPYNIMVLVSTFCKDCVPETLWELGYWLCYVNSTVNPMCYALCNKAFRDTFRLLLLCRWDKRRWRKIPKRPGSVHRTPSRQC
- assay.method.text: rat M1 muscarinic receptor antagonist potency, dose response, cell-based, calcium fluorescence (AID 859)
- test.settings: M1-expressing cells, antagonist mode vs EC80
# log scale: pIC50 equals minus log10 of the concentration in mol/L

Field: pIC50 (Muscarinic acetylcholine receptor M1 (Rattus norvegicus) (UniProt P08482)). Entry: CCC(C)N(CCNC(=O)CC1Oc2ccc(C)cc2NC1=O)C1CCCCC1 (stereo not given)
6.00

Field: pIC50 (Muscarinic acetylcholine receptor M1 (Rattus norvegicus) (UniProt P08482)). Entry: O=C(CN1CCCC(O)C1)N1c2ccccc2Sc2ccc(C(F)(F)F)cc21 (stereo not given)
6.12

Field: pIC50 (Muscarinic acetylcholine receptor M1 (Rattus norvegicus) (UniProt P08482)). Entry: Clc1ccc(OCc2nnc(SCCN3CCCCC3)n2Cc2ccco2)cc1
5.85

Field: pIC50 (Muscarinic acetylcholine receptor M1 (Rattus norvegicus) (UniProt P08482)). Entry: CCN1CCN(Cc2cc(=O)oc3cc(C)cc(C)c23)CC1
6.01

Field: pIC50 (Muscarinic acetylcholine receptor M1 (Rattus norvegicus) (UniProt P08482)). Entry: Cc1c(C(=O)OC(C)CCN(C)C)oc2ccccc12 (stereo not given)
6.17

Field: pIC50 (Muscarinic acetylcholine receptor M1 (Rattus norvegicus) (UniProt P08482)). Entry: C=CCSc1nnc2c(n1)OC(c1cccnc1)N(C(C)=O)c1ccccc1-2 (stereo not given)
6.72

Field: pIC50 (Muscarinic acetylcholine receptor M1 (Rattus norvegicus) (UniProt P08482)). Entry: CN1CCN(C2=Nc3ccccc3Oc3ccc(Cl)cc32)CC1
5.92

Field: pIC50 (Muscarinic acetylcholine receptor M1 (Rattus norvegicus) (UniProt P08482)). Entry: Cc1onc(-c2ccccc2Cl)c1C(=O)Nc1ccc(-c2nnc3n2CCCCC3)cc1
6.31

Field: pIC50 (Muscarinic acetylcholine receptor M1 (Rattus norvegicus) (UniProt P08482)). Entry: CNCCCC1c2ccccc2C=Cc2ccccc21
5.90

Field: pIC50 (Muscarinic acetylcholine receptor M1 (Rattus norvegicus) (UniProt P08482)). Entry: O=C(OCCN1CCCC1)C1(c2ccccc2)CCCC1
6.74
